- Assay procedure: Acute 8-day toxicity, single i.p. application to male mice (LD50)
- Experimental conditions: in vivo, ip, mouse i.p., 8 days
Readout: LD50 at 192 h (mg/kg)
API: value field is a number in mg/kg; no unit string.

# count of solved cases: 10
Molecule: CCc1cc(=O)n(CCCN2CCN(c3ccc(F)cc3)CC2)n1-c1ccccc1 [Example 1]
LD50 at 192 h [mg/kg]: 117
//
Molecule: Cc1cc(=O)n(CCCN2CCN(c3ccccn3)CC2)n1-c1ccccc1 [Example 45]
LD50 at 192 h [mg/kg]: 240
//
Molecule: Cc1ccnc(N2CCN(CCCn3c(=O)cc(C)n3-c3ccc(O)cc3)CC2)c1 [Example 7]
LD50 at 192 h [mg/kg]: 178
//
Molecule: Cc1cc(=O)n(CCCN2CCN(c3ccc(F)cc3)CC2)n1-c1ccc([N+](=O)[O-])cc1 [Example 39]
LD50 at 192 h [mg/kg]: 91.5
//
Molecule: Cc1ccc(-n2c(C)cc(=O)n2CCCN2CCN(c3cc(C)ccn3)CC2)cc1 [Example 55]
LD50 at 192 h [mg/kg]: 135
//
Molecule: CCc1cc(=O)n(CCCN2CCN(c3cc(C)ccn3)CC2)n1-c1ccc([N+](=O)[O-])cc1 [Example 38]
LD50 at 192 h [mg/kg]: 93
//
Molecule: Cc1ccnc(N2CCN(CCCn3c(=O)cc(C4CCCCC4)n3-c3ccccc3)CC2)c1 [Example 15]
LD50 at 192 h [mg/kg]: 90
//
Molecule: CCCCCCc1cc(=O)n(CCCN2CCN(c3cc(C)ccn3)CC2)n1-c1ccccc1 [Example 26]
LD50 at 192 h [mg/kg]: 72.5
//
Molecule: CCc1cc(=O)n(CCCN2CCN(c3ccc(F)cc3)CC2)n1-c1ccc([N+](=O)[O-])cc1 [Example 54]
LD50 at 192 h [mg/kg]: 53.3
//
Molecule: Cc1cc(=O)n(CCCN2CCN(c3ccc(F)cc3)CC2)n1-c1ccc(C#N)cc1 [Example 60]
LD50 at 192 h [mg/kg]: 91.5

Q: For CCCc1cc(=O)n(CCCN2CCN(c3cc(C)ccn3)CC2)n1-c1ccccc1 [Example 13] , what is its reported LD50 at 192 h?
Result: 96

Q: How about Cc1ccnc(N2CCN(CCCn3c(=O)cc(C4CCCC4)n3-c3ccccc3)CC2)c1 [Example 58] ?
Result: 95

Q: Same question for O=c1cc(C2CCCCC2)n(-c2ccccc2)n1CCCN1CCN(c2ccc(F)cc2)CC1 [Example 49] please.
Result: 96

Q: And Cc1ccnc(N2CCN(CCCn3c(=O)cc(C)n3-c3ccc(Cl)cc3)CC2)c1 [Example 18] ?
Result: 205

Q: What do you have for COc1ccc(-n2c(C)cc(=O)n2CCCN2CCN(c3cc(C)ccn3)CC2)cc1 [Example 47] ?
Result: 190

Q: Same lookup for CCc1cc(=O)n(CCCN2CCN(c3cc(C)ccn3)CC2)n1-c1ccc(Cl)cc1 [Example 23] , please.
Result: 168

Q: Record: Cc1ccnc(N2CCN(CCCn3c(=O)cc(C)n3-c3ccc(C#N)cc3)CC2)c1 [Example 46]
Result: 101

Q: Same read-out for COc1ccccc1-n1c(C)cc(=O)n1CCCN1CCN(c2cc(C)ccn2)CC1 [Example 21] ?
Result: 252

Q: Likewise for COC(=O)c1ccccc1-n1c(C)cc(=O)n1CCCN1CCN(c2cc(C)ccn2)CC1 [Example 17] ?
Result: 342

Q: Cc1ccnc(N2CCN(CCCCn3c(=O)cc(C)n3-c3ccccc3)CC2)c1 [Example 4] , same question.
Result: 130
